target: T1, BKKAA immunoglobulin binding domain of SpAKKAA (Staphylococcus aureus, UniProt A0A0H3K686 214-265); experiment: ELISA, antigen-coated plate, mAb titrated
T1 construct: not shown: N-terminal six histidyl tag (pET15b)
Assign log10 Ka to each entry below.
Answers are given as log10 of Ka in M⁻¹.

As a guide, the following entries are already answered.
mAb 3D11 (antibody, V domains shown, Mouse IgG2b hybridoma mAb raised against SpAKKAA; also called 3D11-HRP; HRP-3D11) VH: QSGPELMKPGASVKISCKASGYSFTSYYMHWVKQSHGKSLEWIGYIDPFNGGTSYNQKFKGKATLTVDKSSSTAYMHLSSLTSEDSAVYYCARYGYDGTFYAMDYWGQGTSVTVSS VL: RIVLTQSPAITAASLGQKVTITCSASSSVSYMHWYQQKSGTSPKPWIYEISKLASGVPARFSGSGSGTSYSLTISSMEAEDAAIYYCQQWSYPFTFGSGTKLEIK    9.59
mAb 3A6 (antibody, V domains shown, Mouse IgG1 hybridoma mAb) VH: QIQLVQSGPELKKPGETVKISCKASGYNFTDYSMHWVKQAPGKGLKWVGWINTETAESTYADDFKGRFAFSLETSASTAYLQINSLKDEDTATFFCAHFDCWGQGTTLTVSS VL: DVVMTQISLSLPVTLGDQASISCRASQSLVHSNGNTYLNWYLQKPGQSPKLLIHKVSNRFSGVPDRFSGSGSGTDFTLKISRVEAEDLGVYFCSQITYVPWTFGGGTKLEIK    8.81
mAb 8E2 (antibody, V domains shown, Mouse IgG1 hybridoma mAb) VH: KVQLQQSGAGLVKPGASVKLSCKASGYTFTEYSIHWVKQSSGQGLEWIGWFYPGSGYIKYNEKFKDKATLTADKSSSTVYMEFSRLTSEDSAVYFCARHGYGNYVGYAMDYWGQGTSVTVSS VL: DIQMTQSPASLSASVGETVTITCRASEIIYSYLAWYQQKQGKSPQLLVYFAKTLAEGVPSRFSGSGSGTQFSLKINSLQPEDFGIYYCQHHYGTPYTFGGGTKLEIK    9.06
mAb 5A10 (antibody, V domains shown, Mouse IgG1 hybridoma mAb raised against SpAKKAA; also called 5A10-HRP; HRP-5A10) VH: EVKLVESGGGLVKPGGSLKLSCAASGFAFSNYDMSWVRQTPEKRLEWVATISSGGTYPYYPDSVKGRFTISRDNAKNTLYLQLSSLRSEDTALYYCARGGFLITTRDYYAMDYWGQGTSVTVSS VL: TIVLTQSPAIMSASPGEKVTMTCSASSSVSYMYWYQQKPGSSPRLLIYDTSNLASGVPVRFSGSGSGTSYSLTISRMEAEDAATYYCQQWSSYPPTFGGGTKLEIK    9.85
mAb 2F2 (antibody, V domains shown, Mouse IgG2b hybridoma mAb) VH: VKLVESGGDLVKPGGSLKLSCAASRFTFSSYVMSWVRQTPEKRLEWVASIGSGGTTYYPDTVKGRFTISRDNARNILYLQMSSLRSDDTAMYYCTRGRGYGFAWYFDVWGAGTTVTVSS VL: TIVLTQSPAIMSASPGEKVTMTCSASSSVSYMYWYQQKPGSSPRLLIYDTSNLASGVPVRFSGSGSGTSYSLTISRMEAEDAATYYCQQWSSYPPTFGGGTKLEIK    9.05

Now let's try a different one.
Endpoint output: log10 Ka of mAb 7E2 (antibody, V domains shown, Mouse IgG1 hybridoma mAb) VH: QIQLVQSGPELKKPGETVKISCKASGYTFTDYSVHWVKQAPGKGLKWMAWINTATGEPTFADDFKGRFAFSLETSARTAYLQINNLKNEDTATYFCAPQLTGPFAYWGHGTLVTVSA VL: DIQMTQSPASLSASVGETVTITCRASENIHNYLAWYQQKQGKSPQLLVYNAKTLTDGVPSRFSGSGSGTQFSLKINSLQAGDFGSYYCQHSWSIPYTFGGGTRLQIR . Value?
8.51
